FYI, the data here is from patent US11013716B2.

Assay name: Phase I metabolism assay of n-butylidenephthalide, rat hepatic microsomes, LC-MS/MS
Format: in vitro ADME
Condition info: Rat hepatic microsomes 0.5 mg/mL, BP 2 mM, NADPH, 37° C., 60 minutes
Experimental: It has been known that the medicine metabolic pathway within an organism's liver can be primarily divided into phase I and phase II metabolism. Phase I metabolism occurs mainly by the redox reaction or hydrolysis reaction of medicine, while phase II metabolism occurs mainly by cytochrome P450 (CYP450) monoxygenase system. […] The products in the reaction solution were analyzed by liquid chromatograph-tandem mass spectrometer (LC-MS/MS) to identify the metabolites and the metabolic profile. […]
Endpoint name: Biotransformation pathway (Phase I metabolites of n-butylidenephthalide)

CCCCC1(O)OC(=O)c2ccccc21 (centres unmarked)    Hydrogenation (forming
CCCCC(=O)c1ccccc1C(=O)O    Hydrogenation (forming
